- assayed_target: CEP55 160-217, Q53EZ4
- Sequence (Q53EZ4 160-217): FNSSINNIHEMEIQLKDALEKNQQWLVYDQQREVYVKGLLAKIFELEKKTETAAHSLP
result_type: selected by phage display

[[record]]
binder = "PPAAVYYAPAGPTSAQ [AKNA, Q7Z591]"
val = "confidence 3 (active)"

[[record]]
binder = "PPSADYSTPPHRTVPE [BAHD1, Q8TBE0]"
val = "confidence 3 (active)"

